B1: BTBD1 (parent)
chain: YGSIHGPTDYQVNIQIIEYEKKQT

# Variants of: B1
# experimental-protocol: protein stability index of a GFP-peptide fusion (GPS, HEK-293T) (PSI 1-6); higher = more stable;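 note: lentivirally expressed fusions sorted by FACS into six bins by GFP to DsRed ratio, PSI derived from sequencing read proportions per bin multiplied by bin number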
# assay-conditions: c terminus: a fixed tail appended
assay-endpoint: protein stability index
One number for each entry.

# variant-designation, value-measured
rows = [
    ("Q15K", 2.56),
    ("K21S", 2.13),
    ("K21A", 1.82),
    ("S3C", 2.06),
    ("I17N", 3.33),
]

Dear colleague, could you send me protein stability index for each of the items below? Thanks.
1. T8Y
2. S3R
3. Y19W
4. N13M
5. Q23D
6. Q23F
7. K21W
8. T24M

1: 2.56; 2: 2.88; 3: 2.5; 4: 2.74; 5: 2.46; 6: 1.61; 7: 2.8; 8: 2.36

Dear colleague, could you send me protein stability index for each of the items below? Thanks.
1. G6R
2. E18K
3. G6I

[2.88, 2.61, 2.17]

Data provenance is the supplement of paper PMC10567573.
